System: ZIKV PRVABC59 strain
assay.info: Viral inhibition assay, post-treatment, new World strain, Vero cells
Type: cell-based, Zika virus
condition.label: Zika virus; new World ZIKV PRVABC59; read-out: PRVABC59 MIC (maximum effective concentration)
Structures can show the parent of a compound that is named as a salt.
assay.metric: MIC

// below: answered compounds
compound	result
CC[C@H](CC#N)OC(=O)N[C@@H](C)c1cccc(NC(=O)Nc2ccc(-c3cnco3)c(OC)c2)c1 [AVN-944]	< 1.23 µM
COC1=CC(c2cc3ccccc3[nH]2)=N/C1=C\c1[nH]c(C)cc1C [Obatoclax, Obatoclax mesylate]	< 1.23 µM

Let's switch to this compound now.
(Q) // map Cc1c(-c2ccc(-c3ccccc3F)cc2)nc2ccc(F)cc2c1C(=O)O [Brequinar, Brequinar sodium salt hydrate] to recorded MIC (system: ZIKV PRVABC59 strain)
(A) < 0.41 µM

* * *

assay.info: MTT cell viability assay in Vero cells
Type: cell-based, African green monkey
condition.label: African green monkey, confluent monolayers; non-infected Vero cells, 36 h post-treatment
Counter-ions that a name gives are not always drawn.
Threshold check on CC50 at 36 h: strictly below 200 µM is true; on or above 200 µM is false.

compound	assigned.label
COc1c(C)c2c(c(O)c1C/C=C(\C)CCC(=O)O)C(=O)OC2 [Mycophenolic acid]	false

(Q) Strictly below 200 µM: is that where CC50 at 36 h of O=c1cnn([C@@H]2O[C@H](CO)[C@@H](O)[C@H]2O)c(=O)[nH]1 [Azauridine, 6-azauridine] sits?
(A) true

(Q) Strictly below 200 µM: is that where CC50 at 36 h of NC(=O)c1[nH]nc([C@@H]2O[C@H](CO)[C@@H](O)[C@H]2O)c1O [Pyrazofurin] sits?
(A) false

(Q) Strictly below 200 µM: is that where CC50 at 36 h of COC1=CC(c2cc3ccccc3[nH]2)=N/C1=C\c1[nH]c(C)cc1C [Obatoclax, Obatoclax mesylate] sits?
(A) true

(Q) Strictly below 200 µM: is that where CC50 at 36 h of COc1c(C)c2c(c(O)c1C/C=C(\C)CCC(=O)OCCN1CCOCC1)C(=O)OC2 [Mycophenolate mofetil] sits?
(A) true

(Q) Strictly below 200 µM: is that where CC50 at 36 h of Cc1c(-c2ccc(-c3ccccc3F)cc2)nc2ccc(F)cc2c1C(=O)O [Brequinar, Brequinar sodium salt hydrate] sits?
(A) false

(Q) Strictly below 200 µM: is that where CC50 at 36 h of O=C(O)C1=CC(=C(c2ccc(O)c(C(=O)O)c2)c2ccc(O)c(C(=O)O)c2)C=CC1=O [ATA, Aurintricarboxylic acid] sits?
(A) false

(Q) Strictly below 200 µM: is that where CC50 at 36 h of CC[C@H](CC#N)OC(=O)N[C@@H](C)c1cccc(NC(=O)Nc2ccc(-c3cnco3)c(OC)c2)c1 [AVN-944] sits?
(A) false

* * *

System: ZIKV Paraiba/2015
assay.info: Viral inhibition assay, co-treatment, Vero cells
Type: cell-based, Zika virus
condition.label: Zika virus, Vero
assay.metric: pEC50
// scale note: pEC50 = -log10(conc_M); give the bare number

(Q) What pEC50 value was documented for this compound, NCC(=O)Nc1ccc(-n2nc(C(F)(F)F)cc2-c2ccc3c(ccc4ccccc43)c2)cc1 [OSU-03012] ?
(A) 5.75
